biological target: NaV1.6 (Homo sapiens (Human), UniProt Q9UQD0); assay: Electrophysiological Assay (EP), patch voltage clamp, NaV1.6; type: cell-based; conditions: HEK-293 cells, whole-cell patch clamp, inactivated state; arithmetic mean
Sequence (Q9UQD0 whole entry): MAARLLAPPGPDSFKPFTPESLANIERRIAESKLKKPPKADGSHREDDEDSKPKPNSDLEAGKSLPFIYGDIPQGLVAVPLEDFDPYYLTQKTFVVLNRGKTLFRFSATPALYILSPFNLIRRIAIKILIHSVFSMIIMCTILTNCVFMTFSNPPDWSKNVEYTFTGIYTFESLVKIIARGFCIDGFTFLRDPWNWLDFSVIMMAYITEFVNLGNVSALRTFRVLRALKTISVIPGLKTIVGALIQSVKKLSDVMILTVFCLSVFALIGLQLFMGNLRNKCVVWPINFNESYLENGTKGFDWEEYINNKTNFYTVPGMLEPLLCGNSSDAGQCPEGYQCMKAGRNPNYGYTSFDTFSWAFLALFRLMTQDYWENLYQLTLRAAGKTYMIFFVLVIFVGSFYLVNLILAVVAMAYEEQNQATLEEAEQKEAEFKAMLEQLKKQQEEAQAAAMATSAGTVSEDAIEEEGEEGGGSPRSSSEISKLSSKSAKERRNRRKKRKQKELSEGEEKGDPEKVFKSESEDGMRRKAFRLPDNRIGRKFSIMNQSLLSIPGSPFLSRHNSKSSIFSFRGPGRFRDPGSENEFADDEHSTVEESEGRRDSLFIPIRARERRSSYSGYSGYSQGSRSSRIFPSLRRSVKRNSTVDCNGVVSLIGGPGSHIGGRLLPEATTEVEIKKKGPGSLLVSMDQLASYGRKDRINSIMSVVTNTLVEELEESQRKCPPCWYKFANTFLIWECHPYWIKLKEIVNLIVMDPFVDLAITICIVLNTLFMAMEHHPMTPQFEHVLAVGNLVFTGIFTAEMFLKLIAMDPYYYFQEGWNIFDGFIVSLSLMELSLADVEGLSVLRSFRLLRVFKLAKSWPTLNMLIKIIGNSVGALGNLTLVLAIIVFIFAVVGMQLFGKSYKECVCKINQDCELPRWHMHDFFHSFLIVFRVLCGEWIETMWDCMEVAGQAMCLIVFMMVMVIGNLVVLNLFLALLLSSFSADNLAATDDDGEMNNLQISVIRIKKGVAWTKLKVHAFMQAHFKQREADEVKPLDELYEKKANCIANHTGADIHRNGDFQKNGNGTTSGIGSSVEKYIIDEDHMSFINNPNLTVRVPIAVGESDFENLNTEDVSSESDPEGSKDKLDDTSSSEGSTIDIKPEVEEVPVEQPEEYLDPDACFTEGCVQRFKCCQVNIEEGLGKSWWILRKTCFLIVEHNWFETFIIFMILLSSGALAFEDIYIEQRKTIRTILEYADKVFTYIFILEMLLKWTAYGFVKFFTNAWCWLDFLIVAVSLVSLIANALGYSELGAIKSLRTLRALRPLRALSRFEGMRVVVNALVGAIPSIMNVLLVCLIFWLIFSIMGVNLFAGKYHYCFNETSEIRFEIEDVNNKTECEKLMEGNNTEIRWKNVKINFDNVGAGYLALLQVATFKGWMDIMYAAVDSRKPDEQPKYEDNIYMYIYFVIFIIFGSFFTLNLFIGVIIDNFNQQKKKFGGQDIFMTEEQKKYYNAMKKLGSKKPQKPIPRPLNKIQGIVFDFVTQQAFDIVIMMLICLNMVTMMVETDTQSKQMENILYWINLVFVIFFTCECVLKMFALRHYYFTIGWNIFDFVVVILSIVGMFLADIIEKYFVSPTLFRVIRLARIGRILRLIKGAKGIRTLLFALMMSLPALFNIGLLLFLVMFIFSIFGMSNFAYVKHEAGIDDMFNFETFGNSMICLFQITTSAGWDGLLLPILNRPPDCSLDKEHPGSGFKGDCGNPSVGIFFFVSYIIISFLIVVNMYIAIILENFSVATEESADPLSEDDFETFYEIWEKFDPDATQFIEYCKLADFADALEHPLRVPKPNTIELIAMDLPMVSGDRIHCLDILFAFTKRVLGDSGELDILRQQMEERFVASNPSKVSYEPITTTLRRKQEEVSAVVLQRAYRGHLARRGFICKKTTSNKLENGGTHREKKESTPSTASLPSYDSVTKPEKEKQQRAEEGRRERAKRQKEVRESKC
Counter-ions that a name gives are not always drawn.
Record form. Attribute: IC50. Fill in for each entry.
Only the number, expressed in nM, is required.

Reported IC50 for `CN(c1ccc(S(=O)(=O)Nc2nccs2)cc1Cl)[C@H]1CCN(Cc2ccccc2)C1` : what is it? 124

Input `O=S(=O)(Nc1nccs1)c1cc(Cl)c(N[C@@H]2CCN(Cc3ccccc3)C2)cc1F` 91

Would you kindly repeat that for Cc1c(N(C)[C@H]2CCN(Cc3ccccc3)C2)ccc(S(=O)(=O)Nc2cscn2)c1F [Example 321, 2,2,2-trifluoroacetate] ? 137

Queued: O=S(=O)(Nc1ncns1)c1ccc(N[C@@H]2CCN(Cc3ccccc3)C2)c(Cl)c1 [Example 66, 2,2,2-trifluoroacetate] 144

Would you mind doing CN(c1ccc(S(=O)(=O)Nc2cscn2)cc1Cl)[C@H]1CCN(Cc2ccccc2)C1 [Example 41, 2,2,2-trifluoroacetate] as well? 748

Same question, O=S(=O)(Nc1cccc(F)n1)c1ccc(OC2CCN(Cc3ccccc3)CC2)c(Cl)c1 [Example 77, 2,2,2-trifluoroacetate] this time 5570

Check C[C@]1(Nc2ccc(S(=O)(=O)Nc3cscn3)cc2Cl)CCN(Cc2ccccc2)C1 [Example 226, formate] too. 3080

----------
target: NaV1.6 (Homo sapiens (Human), UniProt Q9UQD0); test: Sodium Influx Assay (Flux), NaV1.6; settings: read-out: Flux NaV1.6 IC50; Trex HEK293 cells, ANG2 dye; arithmetic mean
Where a name gives a salt, the structure may show the parent alone.
REPORTED PROPERTY: pIC50
Recall that pIC50 is obtained by taking minus log10 of the concentration measured in molar.

Return pIC50 measured with NaV1.6 (Homo sapiens (Human), UniProt Q9UQD0) given this compound: CN(c1ccc(S(=O)(=O)Nc2ncns2)cc1Cl)[C@H]1CCN(Cc2cc(Cl)ccc2F)C1 [Example 33, 2,2,2-trifluoroacetate] 7.39

Repeat for the following compound: `CN(c1cc(F)c(S(=O)(=O)Nc2cscn2)cc1Cl)[C@H]1CCN(Cc2ccccc2Cl)C1` 5.84

Same question, `CC(C)Oc1cccc(CN2CC[C@H](N(C)c3cc(F)c(S(=O)(=O)Nc4cscn4)cc3Cl)C2)c1` this time 5.50

For Cc1cc(S(=O)(=O)Nc2cscn2)c(F)cc1N(C)[C@H]1CCN(CCC(C)(C)C)C1 [Example 125, formate] then? 5.63

----------
molecular target: NaV1.1 (Homo sapiens (Human)); assay: Sodium Influx Assay (Flux), NaV1.1; assay type: cell-based; conditions: Trex HEK293 cells, ANG2 dye; arithmetic mean
Could you please report measured pIC50 for the items listed next?
Units for pIC50: none; it is -log10 of a concentration expressed in mol/L.

What value of pIC50 has been reported for the following compound? `Cc1ccc(CN2CC[C@H](N(C)c3cc(F)c(S(=O)(=O)Nc4cscn4)cc3C)C2)o1` 4.68

Now give it for `C[C@@H](c1ccccc1)N1CC[C@H](N(C)c2ccc(S(=O)(=O)Nc3nccs3)cc2Cl)C1` too. 5.36

Another: `Cc1ccc(CN2CCC(Oc3ccc(S(=O)(=O)Nc4nccs4)cc3Cl)CC2)cc1C` 4.90

Next up: CN(c1cc(F)c(S(=O)(=O)Nc2cscn2)cc1Cl)[C@H]1CCN(CCC(C)(C)C)C1 [Example 175, 2,2,2-trifluoroacetate] 4.88

`CN(c1ccc(S(=O)(=O)Nc2nccs2)cc1Cl)[C@H]1CCN(Cc2ccccc2)C1` , same question. 4.91

Okay, and `O=S(=O)(Nc1nccs1)c1ccc(N[C@@H]2CCN(Cc3ccccc3)C2)c(Cl)c1` ? 5.20

Record: `Cc1cc(S(=O)(=O)Nc2cscn2)c(F)cc1N(C)[C@H]1CCN(Cc2nc(C3CC3)cs2)C1` 4.92

Again, but for `Cc1cc(S(=O)(=O)Nc2cscn2)c(F)cc1N(C)[C@H]1CCN(Cc2nc(C(C)C)cs2)C1` 5.02

Same lookup for `CC(C)Oc1cccc(CN2CC[C@H](N(C)c3cc(F)c(S(=O)(=O)Nc4cscn4)cc3Cl)C2)c1` , please. 5.41

----------
target: NaV1.6 (Homo sapiens (Human)); assay: Sodium Influx Assay (Flux), NaV1.6; conditions: read-out: Flux NaV1.6 IC50; Trex HEK293 cells, ANG2 dye; arithmetic mean
Counter-ions that a name gives are not always drawn.
REPORTED PROPERTY: IC50

Can you share its IC50? I mean this molecule: `Cc1ccc(F)c(CN2CC[C@H](N(C)c3cc(F)c(S(=O)(=O)Nc4cscn4)cc3C)C2)n1` 285 nM

Repeat for the following molecule: CC1(C)CN(Cc2cc(Cl)cc(Cl)c2)CCC1Oc1ccc(S(=O)(=O)Nc2ncns2)cc1Cl (centres unmarked) [Example 4, 2,2,2-trifluoroacetate] > 30000 nM

Now consider `CN(c1cc(F)c(S(=O)(=O)Nc2cscn2)cc1Cl)[C@@H]1CCN(Cc2ccccc2)C1` and answer again. 13300 nM

Now this one: `C[C@H](c1ccccc1)N1CCC(Oc2ccc(S(=O)(=O)Nc3ccncn3)cc2Cl)CC1` 1070 nM

Proceed to `CN(c1cc(F)c(S(=O)(=O)Nc2cscn2)cc1Cl)[C@H]1CCN(Cc2ccccc2OC(F)F)C1` 1270 nM

Do the same for `Cc1csc(CN2CC[C@H](N(C)c3cc(F)c(S(=O)(=O)Nc4cscn4)cc3C)C2)n1` please 828 nM

Also need `Cc1cc(S(=O)(=O)Nc2cscn2)c(F)cc1N(C)[C@H]1CCN(CCc2ccccc2)C1` , thanks. 1600 nM

Follow-up entry: `Cc1cc(C)cc(CN2CCC(Oc3ccc(S(=O)(=O)Nc4nccs4)cc3Cl)CC2)c1` 3440 nM

Repeat with `CCN(c1ccc(S(=O)(=O)Nc2ncns2)cc1Cl)[C@H]1CCN(Cc2cccc(C)c2)C1` 195 nM

Try this molecule too: CN(c1cc(F)c(S(=O)(=O)Nc2cscn2)cc1Cl)[C@H]1CCN(Cc2ccccc2)C1 [Example 38, 2,2,2-trifluoroacetate] 1940 nM

// query: C[C@H](c1ccccc1)N1CCC(Oc2ccc(S(=O)(=O)Nc3nccs3)cc2Cl)CC1 [Example 55, 2,2,2-trifluoroacetate] 187 nM

Same lookup for `Cc1cc(S(=O)(=O)Nc2cscn2)c(F)cc1N(C)[C@H]1CCN(Cc2ccc(C(F)(F)F)o2)C1` , please. 531 nM

Try this molecule too: C[C@H](c1ccccc1)N1CC[C@H](N(C)c2ccc(S(=O)(=O)Nc3cscn3)cc2Cl)C1 [Example 251, 2,2,2-trifluoroacetate] 1500 nM

Same again, this time with `Cc1cccc(CN2CC[C@@H](Nc3ccc(S(=O)(=O)Nc4nccs4)cc3Cl)C2)c1` 664 nM

Now try O=S(=O)(Nc1cscn1)c1cc(Cl)c(OC2CCN(Cc3ccccc3)CC2)cc1F [Example 238, 2,2,2-trifluoroacetate] . 2100 nM

Follow-up item: O=S(=O)(Nc1nccs1)c1ccc(NC2CN(Cc3ccccc3)C2)c(Cl)c1 [Example 50, 2,2,2-trifluoroacetate] 1080 nM

One more molecule: Cc1c(N(C)[C@H]2CCN(Cc3ccccc3)C2)cc(F)c(S(=O)(=O)Nc2cccc(F)n2)c1F [Example 298, formate] 79 nM

How about this molecule: `Cc1cccc(CN2CC[C@H](N(C)c3ccc(S(=O)(=O)Nc4ncns4)cc3Cl)C2)c1` 29 nM

What about `CN(c1ccc(S(=O)(=O)Nc2nccs2)cc1Cl)[C@H]1CCN(Cc2cccc(Cl)c2)C1` ? 437 nM

Another: `O=S(=O)(Nc1nccs1)c1ccc(OC2CCN(CCc3ccccc3)CC2)c(Cl)c1` 1420 nM

# repeat for `CN(c1ccc(S(=O)(=O)Nc2ncns2)cc1Cl)[C@H]1CCN(Cc2cccc(C(F)F)c2)C1` 13 nM

Input `Cc1cc(S(=O)(=O)Nc2cscn2)c(F)cc1N(C)[C@H]1CCN(Cc2cccc(O)c2)C1` 2250 nM

Entry to check: Cc1cc(S(=O)(=O)Nc2cscn2)c(F)cc1N(C)C1CCN([C@H](C)c2ccccc2)CC1 [Example 281, 2,2,2-trifluoroacetate] 21 nM

Continue with Cc1c(N(C)[C@H]2CCN(Cc3cccc(F)c3)C2)cc(F)c(S(=O)(=O)Nc2cscn2)c1F [Example 235, formate] 47 nM

Input `CN(c1cc(F)c(S(=O)(=O)Nc2cscn2)cc1Cl)[C@H]1CCN(Cc2cccc(Cl)c2)C1` 1090 nM

And the next one, Cc1cc(S(=O)(=O)Nc2cscn2)ccc1N(C)[C@H]1CCN(Cc2ccccc2)C1 [Example 284, 2,2,2-trifluoroacetate] ? 718 nM

Another molecule: C[C@H](c1ccccc1)N1CCC(Oc2cc(F)c(S(=O)(=O)Nc3cscn3)c(F)c2)CC1 [Example 291, 2,2,2-trifluoroacetate] 578 nM

Also, Cc1ccc(F)c(CN2CC[C@H](N(C)c3ccc(S(=O)(=O)Nc4cscn4)c(F)c3C)C2)n1 [Example 324, 2,2,2-trifluoroacetate] please. 403 nM

Now the molecule CC(c1ccccc1)N1CCC(Oc2ccc(S(=O)(=O)Nc3nccs3)cc2Cl)CC1 (centres unmarked) 305 nM
